System: NCI-H23 lung
assay method text: NCI-60 one-dose screen, 48 h
recorded conditions: 10 µM unless noted
Compounds without any hit were thinned out: in the full panel of roughly 83,000, 20% have a hit. Calls of active or inactive are those of the source. Rule for the calls: active = growth percent below 10; inactive = the rest.
Pick from y (active), n (inactive) when you respond.

Before answering, review these 2 worked examples.
molecule=N#Cc1c(N2CCOCC2)nc(=S)[nH]c1-c1ccco1 class_name=n
molecule=CCCCOC(=O)c1cccc([N+](=O)[O-])c1 class_name=n

Turning now to a further molecule:
Test call for this molecule, please: `C=C(C)[C@@H]1CC[C@]2(C)[C@H](CC=C3[C@@H]4[C@@H](C)[C@H](C)CC[C@]4(C(N)=O)CC[C@]32C)[C@@]1(C)CCC#N`
y

====

Test system: OVCAR-4 ovarian
assay method text: NCI-60 one-dose screen, 48 h (100 = growth as untreated, 0 = no growth, -100 = all killed)
recorded conditions: 10 µM
The panel holds about 83,000 compounds, 20% with a hit somewhere; the sample as a whole holds those more often. Activity calls are given as the source filed them. Rule for the calls: active = growth percent below 10; inactive = the rest.
measurement kind: growth

smiles=COc1ccc(-c2cc(-c3ccc(Cl)cc3)nc(NCCCCNc3ccnc4cc(Cl)ccc34)n2)cc1 value_measured="73.3% (inactive)"

The observed growth for `Nn1c(Nc2ccc(S(=O)(=O)Nc3ncccn3)cc2)nnc(/C=C/c2c(O)ccc3ccccc23)c1=O` when tested with OVCAR-4 ovarian stands at 75.8% (inactive)

Form field, growth with OVCAR-4 ovarian, item `C[C@@H]1C[C@H]2C(=O)O[C@@H](C)[C@H](NC(=O)[C@H](Cc3cc(F)cc(F)c3)NC(=O)Nc3ccc(Cl)cc3F)C(=O)N3C[C@H](O)C[C@H]3C(=O)N3CCN(C)C[C@H]3C(=O)N[C@@H](C)C(=O)N2C1` : 16.4% (inactive)

====

Tested on: UACC-62 melanoma
assay method text: NCI-60 one-dose screen, 48 h (100 = growth as untreated, 0 = no growth, -100 = all killed)
recorded conditions: 10 µM unless noted
This is part of a sample that, as a whole, favours compounds with a hit. Of some 83,000 tested, about 20% had one in any assay. The source made the active and inactive calls. Rule for the calls: active = growth percent below 10; inactive = the rest.
This listing pairs molecules with measured growth.

Answered examples (3):
molecule=CCN(CC)CCS(=O)(=O)CCNc1ccnc2cc(Cl)ccc12 measurement_kind=growth value_measured="29.7% (inactive)"
molecule="CCOC(=O)c1nn(C2CCCCO2)c2ccc(NC(=O)CSc3nc4ccccc4c(=O)[nH]3)cc12 (stereo not given)" measurement_kind=growth value_measured="94.5% (inactive)"
molecule="Cc1nc(Cl)c2c(n1)N(C)c1ccc(Cl)cc1C(C)C2 (stereo not given)" measurement_kind=growth value_measured="65% (inactive)"

`COc1cc(C)cc2oc3oc(=O)c(C(=O)c4cc5cc(Br)ccc5o4)cc3c(=O)c12` has a reported growth of 99.9% (inactive)

Kindly note the recorded growth for CCN(CCNc1ccc(C)c2sc3cc(Cl)ccc3c(=O)c12)CC(C)O (stereo not given) , which is -70.3% (active)

====

Recorded growth by entry
Tested on: MDA-MB-231 breast
assay method text: NCI-60 one-dose screen, 48 h (100 = growth as untreated, 0 = no growth, -100 = all killed)
recorded conditions: 10 µM unless noted
This is part of a sample that, as a whole, favours compounds with a hit. Of some 83,000 tested, about 20% had one in any assay.
Provide only the numeric value, understood in %.

Worked examples, 5 compounds total:
compound=Cc1ccccc1OC(=O)c1cccc(Cl)c1 value_units=% value_measured=118
compound=CCOC(=O)c1sc2nc(-c3cc(OC)c(OC)c(OC)c3)nc(N3CCOCC3)c2c1C value_units=% value_measured=44.9
compound="O=C(C[n+]1ccn(CC(OCc2ccc(Cl)cc2Cl)c2ccc(Cl)cc2Cl)c1)c1ccc(F)cc1 (stereo unspecified)" value_units=% value_measured=-96.7
compound=COc1cc(/C=C/C(=O)/C=C/c2ccc(-n3ccnc3)cc2)ccc1O value_units=% value_measured=63.7
compound=O=C(NNc1ccc(-c2ccccc2)nn1)c1ccccc1 value_units=% value_measured=97.4

Alright, here's another compound for you.
growth for `CSc1cccc([N+](=O)[O-])c1` is 101

====

Tested on: NCI-H226 lung
assay method text: NCI-60 one-dose screen, 48 h
recorded conditions: 10 µM unless noted
The panel holds about 83,000 compounds, 20% with a hit somewhere; the sample as a whole holds those more often. The source made the active and inactive calls. The calls were made as follows: active = growth percent below 10; inactive = the rest.
The categories you may choose from are t (active), f (inactive)

Would you please look over these solved cases?
compound=CCCc1cc2cc(-n3nc(C)c4c3CC(C)(C)CC4=O)cc(NC3CCSCC3)c2c(=O)[nH]1 class_name=f
compound=N#C/C(C(=O)c1ccccc1)=C1/C(=O)Nc2ccc(Br)cc21 class_name=f
compound=C#CCNC(=O)CC[C@]1(C)[C@H]2CC[C@@H]3[C@@H]([C@@](C)(O)CCC=C(C)C)CC[C@@]3(C)[C@]2(C)CC[C@H]1C(=C)C class_name=f
compound="COc1ccc2c(c1)C(C)Cc1c(Cl)ncnc1N2C (stereo not given)" class_name=t
compound=C#C[C@]1(O)CC[C@H]2[C@@H]3CC=C4c5nc(Nc6ccccn6)sc5CC[C@]4(C)[C@H]3CC[C@@]21C class_name=f

Call for entry `C=CCCCCOc1ccccc1-c1cnc(OCCCCC=C)n1C` :
f

Hey, what did the test say about CCCCCC1CCCCN1C(=O)OCCCC (stereo not given) ?
f

Test call for this compound, please: `CC1=CC[C@@H]2C(C)(C)C(=O)CC[C@@]2(C)[C@@H]1COc1ccc2ccc(=O)oc2c1`
f

Could you kindly confirm the outcome this assay logged for `CN(C)CCOc1ccc(/C(=C(/CCCl)c2ccccc2)c2ccccc2)cc1` ?
f

What was the test verdict on `CC(=O)OC[C@]12CC[C@@H]([C@@H](C)C(N)=O)[C@@H]1[C@H]1CC[C@@H]3[C@@]4(C)CC[C@H](OC(C)=O)C(C)(C)[C@@H]4CC[C@@]3(C)[C@]1(C)CC2` ?
t

# lookup: test call for `O=C(OCc1ccc2c(Cl)cc(Cl)c(O)c2n1)N1CCN(C(=O)c2cc3cc(F)ccc3[nH]2)CC1`
t

Dear all, I need the recorded test outcome for `CC(=O)O.CC(=O)O.O.[Fe]` , thank you.
f

Each compound tested received a call. Report the one for `C[C@]12CCc3nc(Nc4ccccc4)sc3C1=CC[C@@H]1[C@@H]2CC[C@]2(C)/C(=N/NC(N)=S)CC[C@@H]12` .
f

Which outcome did this test record for the compound `C=C(C)[C@@H]1CC[C@]2(C(=O)NCCCN)CC[C@]3(C)[C@H](CC[C@@H]4[C@@]5(C)CC[C@H](O)C(C)(C)[C@@H]5CC[C@]43C)[C@@H]12` ?
f

====

Tested on: OVCAR-5 ovarian
assay method text: NCI-60 one-dose screen, 48 h
recorded conditions: 10 µM unless noted
About 83,000 compounds went through this panel and 20% of them were active in at least one assay; those are over-represented in the sample as a whole. Active and inactive are the calls of the source. How the source made its calls: active means growth percent below 10; inactive means the rest.
Tick one outcome: y for active, n for inactive

Examples from the recorded data:
compound=COc1ccc2c(c1)c(-c1noc(C(=O)c3cn(C)c4ncc(Br)cc34)n1)cn2C system="OVCAR-5 ovarian" class_name=n
compound=O=c1cc(-c2ccccc2)oc2c(O)c(O)ccc12 system="OVCAR-5 ovarian" class_name=n
compound=COc1cc2c(c(OC)c1OC)-c1ccc(NNC(N)=S)c(=O)cc1[C@@H](NC(C)=O)CC2 system="OVCAR-5 ovarian" class_name=n
compound=Cc1cnc([C@]23CC[C@@H](C)[C@H](C)[C@H]2C2=CC[C@@H]4[C@@]5(C)Cc6c([nH]c7ccccc67)C(C)(C)[C@@H]5CC[C@@]4(C)[C@]2(C)CC3)o1 system="OVCAR-5 ovarian" class_name=n
compound=C=C(C)[C@@H]1CC[C@]2(C)[C@H](CC=C3[C@@H]4[C@@H](C)[C@H](C)CC[C@]4(C(N)=O)CC[C@]32C)[C@@]1(C)CCC#N system="OVCAR-5 ovarian" class_name=y

Turning to the following compound.
Please state the recorded outcome for this compound: `COC(=O)c1c(C)[nH]c(/C=C2\N=C(c3ccc[nH]3)C=C2OC)c1C`
y

====

Test system: RXF 393 renal
assay method text: NCI-60 one-dose screen, 48 h
recorded conditions: 10 µM unless noted
About 83,000 compounds went through this panel and 20% of them were active in at least one assay; those are over-represented in the sample as a whole. The source made the active and inactive calls. How the source made its calls: active means growth percent below 10; inactive means the rest.
Tick one outcome: TRUE = active, FALSE = inactive

molecule=O=C1/C(=C\c2cccn2Cc2ccccc2)c2ccccc2N1c1c(Cl)cccc1Cl system="RXF 393 renal" class_name=FALSE
molecule=COc1ccc(N(c2nc(-c3ccc([N+](=O)[O-])cc3)cs2)C(C)C)cc1 system="RXF 393 renal" class_name=FALSE
molecule=O=C(COc1cccc(/C=C2\Oc3ccccc3C2=O)c1)c1ccc([N+](=O)[O-])cc1 system="RXF 393 renal" class_name=FALSE
molecule=O=C(Nc1ccc(Oc2ccc(F)cc2)c(Cl)c1)c1cnccn1 system="RXF 393 renal" class_name=FALSE
molecule=[2H]C1([2H])CCN(C(=O)C2CC2)c2cc(NS(=O)(=O)c3ccc(-c4cccc(C(N)=O)c4)cc3)ccc21 system="RXF 393 renal" class_name=FALSE
molecule=CCn1cc(-c2ccnc(NCCNS(=O)(=O)c3cccc4ccccc34)c2)c(-c2cccc(O)c2)n1 system="RXF 393 renal" class_name=FALSE
molecule=Cn1cc(-c2noc(C(=O)c3cn(C)c4ncc(Br)cc34)n2)c2ccccc21 system="RXF 393 renal" class_name=FALSE
molecule="CCC(C)[C@H](NC(=O)NC(=O)NC(=O)CI)C(=O)OC (some centres undefined)" system="RXF 393 renal" class_name=FALSE

Just curious, what result did COc1cc2c(c(OC)c1)C1c3cc(OC)ccc3NC(=O)N1CC2 (centres undefined) get here?
FALSE

Outcome? `O=[N+]([O-])c1cccc(/C=C/c2ccc3ccccc3n2)c1`
FALSE

Can you look up the reported call for `CC1(C)NCCC[C@]2(C)[C@H]3C=CC4=C5C[C@](C)(CO)CC[C@]5(C)CC[C@@]4(C)[C@]3(C)CC[C@@H]12` for me?
TRUE

Look up the recorded call for `O=C(N/N=C\c1cc(Cl)ccc1O)N/N=C/c1cc(Cl)ccc1O` in this test.
FALSE

# outcome recorded in this test, key = `COC(=O)c1cc(O)c2c(c1C(=O)OC)C[C@H]1[C@@H]3CC=C4C[C@@H](O)CC[C@]4(C)[C@H]3CC[C@]21C`
TRUE

Would you mind telling me which call this test gave `N#Cc1c(N2CCOCC2)nc(=S)[nH]c1-c1ccco1` ?
FALSE

Test call for this molecule, please: `CCOC(=O)c1cc(C#N)n2ncc3ccccc3c12`
FALSE

Recorded test outcome, item `C=C(C)[C@@H]1CC[C@]2(C)[C@H](CC[C@@H]3[C@@H]([C@@](C)(O)CCC=C(C)C)CC[C@]32C)[C@@]1(C)CCC(=O)N1CCN(C)CC1`
TRUE

Check the results log: what was the call for `CCOC(=O)c1cc(C(=O)c2ccc(OC)c(OC)c2)n2ccc(-c3ccccn3)cc12` ?
FALSE

Check the results log: what was the call for `O=c1cc(-c2ccccc2)oc2cc(OCc3cn(Cc4ccc(F)cc4)nn3)cc(O)c12` ?
TRUE

Dear colleague, could you share the recorded outcome for `Nc1nnc(CSc2nnc3n(Cc4ccccc4)c(=O)c4c5c(sc4n23)CCCC5)s1` when you have a moment?
FALSE
